For each record, write down the corresponding HPLC results Purity (area%).
experiment: Solid state stability (XRPD and HPLC); type: physicochemical; settings: 25°C/60%RH/open, 1 week
Counter-ions that a name gives are not always drawn.
Reply with just the number (in area%).

Query: Please report the recorded HPLC results Purity (area%) for Cc1nc(N[C@H](C)c2cccc(S(F)(F)(F)(F)F)c2)c2cn(C3(CF)CC3)c(=O)cc2n1 [Crystal form A of ethanesulfonate salt] .
Result: 99.15

Query: Please report the recorded HPLC results Purity (area%) for Cc1nc(N[C@H](C)c2cccc(S(F)(F)(F)(F)F)c2)c2cn(C3(CF)CC3)c(=O)cc2n1 [Crystal form A of methanesulfonate salt] .
Result: 99.21

Query: Please report the recorded HPLC results Purity (area%) for Cc1nc(N[C@H](C)c2cccc(S(F)(F)(F)(F)F)c2)c2cn(C3(CF)CC3)c(=O)cc2n1 [Crystal form B of citrate salt] .
Result: 99.00

Query: Please report the recorded HPLC results Purity (area%) for Cc1nc(N[C@H](C)c2cccc(S(F)(F)(F)(F)F)c2)c2cn(C3(CF)CC3)c(=O)cc2n1 [Crystal form A of fumarate salt] .
Result: 98.67

====

test: Dynamic solubility in water, SGF, FaSSIF and FeSSIF; settings: SGF, 4 hours, 37°C, solid feed concentration 10 mg/mL; 240 min
Counter-ions that a name gives are not always drawn.
reported-metric: S: solubility
Enter the number, and then the unit.

Query: Please report the recorded S: solubility for Cc1nc(N[C@H](C)c2cccc(S(F)(F)(F)(F)F)c2)c2cn(C3(CF)CC3)c(=O)cc2n1 [Crystal form A of methanesulfonate salt] .
Result: 9880 µg/mL

Query: Please report the recorded S: solubility for Cc1nc(N[C@H](C)c2cccc(S(F)(F)(F)(F)F)c2)c2cn(C3(CF)CC3)c(=O)cc2n1 [Crystal form A of fumarate salt] .
Result: 1940 µg/mL

Query: Please report the recorded S: solubility for Cc1nc(N[C@H](C)c2cccc(S(F)(F)(F)(F)F)c2)c2cn(C3(CF)CC3)c(=O)cc2n1 [Crystal form B of citrate salt] .
Result: 9400 µg/mL

Query: Please report the recorded S: solubility for Cc1nc(N[C@H](C)c2cccc(S(F)(F)(F)(F)F)c2)c2cn(C3(CF)CC3)c(=O)cc2n1 [Crystal form A of ethanesulfonate salt] .
Result: 10130 µg/mL

====

assay: Solid state stability (XRPD and HPLC); format: physicochemical; details: Onset
Structures can show the parent of a compound that is named as a salt.
For each record, write down the corresponding HPLC results Purity (area%).
Reply with just the number (in area%).

Query: Please report the recorded HPLC results Purity (area%) for Cc1nc(N[C@H](C)c2cccc(S(F)(F)(F)(F)F)c2)c2cn(C3(CF)CC3)c(=O)cc2n1 [Crystal form A of fumarate salt] .
Result: 98.67

Query: Please report the recorded HPLC results Purity (area%) for Cc1nc(N[C@H](C)c2cccc(S(F)(F)(F)(F)F)c2)c2cn(C3(CF)CC3)c(=O)cc2n1 [Crystal form A of ethanesulfonate salt] .
Result: 99.10

Query: Please report the recorded HPLC results Purity (area%) for Cc1nc(N[C@H](C)c2cccc(S(F)(F)(F)(F)F)c2)c2cn(C3(CF)CC3)c(=O)cc2n1 [Crystal form A of methanesulfonate salt] .
Result: 99.18

Query: Please report the recorded HPLC results Purity (area%) for Cc1nc(N[C@H](C)c2cccc(S(F)(F)(F)(F)F)c2)c2cn(C3(CF)CC3)c(=O)cc2n1 [Crystal form B of citrate salt] .
Result: 98.92
